Every entry's value here was drawn from patent US4367237A.

- Tested on: diarrhoea
- Assay Text: Diarrhoea (Diarrhoea-producing activity)
- Format: in vivo
- Assay Setup: diarrhoea in 50% of mice, oral
Quantity Name: Diarrhoea (Diarrhoea-producing activity), relative to PGE1
Number only, no unit.

Examples from the recorded data:
# input Please report the measured Diarrhoea (Diarrhoea-producing activity), relative to PGE1 for CCCC[C@H](C)[C@H](O)/C=C/[C@@H]1[C@H]2CC(CCCCC(=O)OC)S[C@H]2C[C@H]1O (mixture of isomers) [E]
# output 0.514

# input Check the records and state Diarrhoea (Diarrhoea-producing activity), relative to PGE1 for CCCCC(C)(C)[C@H](O)/C=C/[C@@H]1[C@H]2CC(CCCCC(=O)OC)S[C@H]2C[C@H]1O (mixture of isomers) [D]
# output 0.095

Please examine the following record next.
# input Consider the molecule CCCCC[C@H](O)/C=C/[C@H]1[C@H](O)CC(=O)[C@@H]1CCCCCCC(=O)O [PGE1, reference compound] . State its measured Diarrhoea (Diarrhoea-producing activity), relative to PGE1.
# output 1
